assay: activity coefficient (dimensionless); of the first substance listed, at infinite dilution; xn = mol fraction of the nth substance listed; conditions: 353.15 K; 101 kPa; Liquid; Chromatography; x1 = 0
Let's look at some compounds and their measured activity coefficient.

COMPOUND | METRIC_NAME | MEASURED_VALUE
C1=CCCCC1 [cyclohexene] + CCCCCCCCCCn1cc[n+](C)c1.F[B-](F)(F)F | activity coefficient | 2.96
CCCCC [pentane] + CCCCCCCCCCn1cc[n+](C)c1.F[B-](F)(F)F | activity coefficient | 6.01
Cc1ccc(C)cc1 [1,4-dimethylbenzene] + CCCCCCCCCCn1cc[n+](C)c1.F[B-](F)(F)F | activity coefficient | 1.88

Q: Requested read-out: activity coefficient. Entry: C=Cc1ccccc1 [styrene] + CCCCCCCCCCn1cc[n+](C)c1.F[B-](F)(F)F
A: 1.16

Q: Param item: CCCCCCCC [octane] + CCCCCCCCCCn1cc[n+](C)c1.F[B-](F)(F)F
A: 9.16

---

experiment: activity coefficient (dimensionless); of the first substance listed, at infinite dilution; xn = mol fraction of the nth substance listed; settings: 343.15 K; 101 kPa; Liquid; Chromatography; x1 = 0
Threshold rule: activity coefficient greater than or equal to 3 is y; below that, n.

MOLECULE | ASSIGNED_LABEL
C=Cc1ccccc1 [styrene] + CCCCCCCCCCn1cc[n+](C)c1.F[B-](F)(F)F | n
CCCCCCCCC [nonane] + CCCCCCCCCCn1cc[n+](C)c1.F[B-](F)(F)F | y
Cc1cccc(C)c1 [1,3-dimethylbenzene] + CCCCCCCCCCn1cc[n+](C)c1.F[B-](F)(F)F | n
CC1CCCCC1 [methylcyclohexane] + CCCCCCCCCCn1cc[n+](C)c1.F[B-](F)(F)F | y
CCc1ccccc1 [ethylbenzene] + CCCCCCCCCCn1cc[n+](C)c1.F[B-](F)(F)F | n

Q: API: above_or_equal(metric=activity coefficient, cutoff=3) for item CCCCC [pentane] + CCCCCCCCCCn1cc[n+](C)c1.F[B-](F)(F)F
A: y

Q: Param item: Cc1ccccc1C [1,2-dimethylbenzene] + CCCCCCCCCCn1cc[n+](C)c1.F[B-](F)(F)F
A: n

Q: Param item: Cc1ccccc1 [toluene] + CCCCCCCCCCn1cc[n+](C)c1.F[B-](F)(F)F
A: n

---

assay: activity coefficient (dimensionless); of the first substance listed, at infinite dilution; xn = mol fraction of the nth substance listed; settings: 363.15 K; 101 kPa; Liquid; Chromatography; x1 = 0
METRIC_NAME: activity coefficient

// known answers, use as guide
COMPOUND | METRIC_NAME | MEASURED_VALUE
CCc1ccccc1 [ethylbenzene] + CCCCCCCCCCn1cc[n+](C)c1.F[B-](F)(F)F | activity coefficient | 1.96
Cc1cccc(C)c1 [1,3-dimethylbenzene] + CCCCCCCCCCn1cc[n+](C)c1.F[B-](F)(F)F | activity coefficient | 1.91

Q: Requested read-out: activity coefficient. Entry: Cc1ccccc1C [1,2-dimethylbenzene] + CCCCCCCCCCn1cc[n+](C)c1.F[B-](F)(F)F
A: 1.71

Q: Param item: CCCCCCC [heptane] + CCCCCCCCCCn1cc[n+](C)c1.F[B-](F)(F)F
A: 7.88

Q: Param item: c1ccccc1 [benzene] + CCCCCCCCCCn1cc[n+](C)c1.F[B-](F)(F)F
A: 1.06

Q: Param item: CC(C)CC(C)(C)C [2,2,4-trimethylpentane] + CCCCCCCCCCn1cc[n+](C)c1.F[B-](F)(F)F
A: 9.06

Q: Param item: C1CCCCC1 [cyclohexane] + CCCCCCCCCCn1cc[n+](C)c1.F[B-](F)(F)F
A: 4.69

Q: Param item: Cc1ccccc1 [toluene] + CCCCCCCCCCn1cc[n+](C)c1.F[B-](F)(F)F
A: 1.35

Q: Param item: C=Cc1ccccc1 [styrene] + CCCCCCCCCCn1cc[n+](C)c1.F[B-](F)(F)F
A: 1.14

Q: Param item: C1=CCCCC1 [cyclohexene] + CCCCCCCCCCn1cc[n+](C)c1.F[B-](F)(F)F
A: 2.96

Q: Param item: CCCCCCCC [octane] + CCCCCCCCCCn1cc[n+](C)c1.F[B-](F)(F)F
A: 9.13

Q: Param item: Cc1ccc(C)cc1 [1,4-dimethylbenzene] + CCCCCCCCCCn1cc[n+](C)c1.F[B-](F)(F)F
A: 1.86

Q: Param item: CCCCCC [hexane] + CCCCCCCCCCn1cc[n+](C)c1.F[B-](F)(F)F
A: 6.68

---

experiment: activity coefficient (dimensionless); of the first substance listed, at infinite dilution; xn = mol fraction of the nth substance listed; conditions: 353.15 K; 101 kPa; Liquid; Chromatography; x1 = 0
Threshold rule: activity coefficient greater than or equal to 2 is T; below that, F.

COMPOUND | ASSIGNED_LABEL
CC(C)CC(C)(C)C [2,2,4-trimethylpentane] + CCCCCCCCCCn1cc[n+](C)c1.F[B-](F)(F)F | T
Cc1ccccc1 [toluene] + CCCCCCCCCCn1cc[n+](C)c1.F[B-](F)(F)F | F

Q: API: above_or_equal(metric=activity coefficient, cutoff=2) for item CCCCCCC [heptane] + CCCCCCCCCCn1cc[n+](C)c1.F[B-](F)(F)F
A: T

Q: Param item: C1CCCCC1 [cyclohexane] + CCCCCCCCCCn1cc[n+](C)c1.F[B-](F)(F)F
A: T

Q: Param item: CC1CCCCC1 [methylcyclohexane] + CCCCCCCCCCn1cc[n+](C)c1.F[B-](F)(F)F
A: T

Q: Param item: c1ccccc1 [benzene] + CCCCCCCCCCn1cc[n+](C)c1.F[B-](F)(F)F
A: F

---

test: activity coefficient (dimensionless); of the first substance listed, at infinite dilution; xn = mol fraction of the nth substance listed; settings: 343.15 K; 101 kPa; Liquid; Chromatography; x1 = 0
Mark criterion met only for activity coefficient values smaller than 7; exact matches and larger values are criterion not met.

COMPOUND | ASSIGNED_LABEL
C1CCCCC1 [cyclohexane] + CCCCCCCCCCn1cc[n+](C)c1.F[B-](F)(F)F | criterion met
CC(C)CC(C)(C)C [2,2,4-trimethylpentane] + CCCCCCCCCCn1cc[n+](C)c1.F[B-](F)(F)F | criterion not met
CCCCCCCC [octane] + CCCCCCCCCCn1cc[n+](C)c1.F[B-](F)(F)F | criterion not met
C1=CCCCC1 [cyclohexene] + CCCCCCCCCCn1cc[n+](C)c1.F[B-](F)(F)F | criterion met
c1ccccc1 [benzene] + CCCCCCCCCCn1cc[n+](C)c1.F[B-](F)(F)F | criterion met
CCCCCCC [heptane] + CCCCCCCCCCn1cc[n+](C)c1.F[B-](F)(F)F | criterion not met

Now consider the entry below.
Q: For Cc1ccc(C)cc1 [1,4-dimethylbenzene] + CCCCCCCCCCn1cc[n+](C)c1.F[B-](F)(F)F , is the recorded activity coefficient below the cut-off of 7?
A: criterion met

---

Let's look at some compounds and their measured activity coefficient.
assay: activity coefficient (dimensionless); of the first substance listed, at infinite dilution; xn = mol fraction of the nth substance listed; details: 363.15 K; 101 kPa; Liquid; Chromatography; x1 = 0
The answer should be a number; do not append a unit.

// known answers, use as guide
COMPOUND | activity coefficient
CCCCC [pentane] + CCCCCCCCCCn1cc[n+](C)c1.F[B-](F)(F)F | 5.93
CC1CCCCC1 [methylcyclohexane] + CCCCCCCCCCn1cc[n+](C)c1.F[B-](F)(F)F | 5.39

Q: Requested read-out: activity coefficient. Entry: CCCCCCCCC [nonane] + CCCCCCCCCCn1cc[n+](C)c1.F[B-](F)(F)F
A: 10.6
